- TARGET DESC: Gonadotropin-releasing hormone receptor (Rattus norvegicus)
- PROCEDURE DETAILS: Inhibition GnRH-stimulated luteinizing hormone (LH) release from rat pituitary cells
- Assay type: functional, cell-based, Pituitary gland cell
pIC50: −log10 of the molar value.
Collected pIC50 values appear next to each entry.

{"COMPOUND": "Cc1cc(C)cc(-c2[nH]c3ccc(CC(=O)N4C(C)CCC4C)cc3c2CCNCCCCc2ccc(NS(C)(=O)=O)cc2)c1 (stereo unspecified)", "pIC50": 7.02}
{"COMPOUND": "Cc1cc(C)cc(-c2[nH]c3ccc(C(C)(C)C(=O)N(C)C)cc3c2CCNCCCCc2ccc(NS(C)(=O)=O)cc2)c1", "pIC50": 6.80}
{"COMPOUND": "Cc1cc(C)cc(-c2[nH]c3ccc(C(=O)N(CC(C)C)CC(C)C)cc3c2CCNCCCCc2ccc(O)cc2)c1", "pIC50": 6.42}
{"COMPOUND": "CCCN(CCC)C(=O)C(C)(C)c1ccc2[nH]c(-c3cc(C)cc(C)c3)c(CCNCCCCc3ccc(NS(C)(=O)=O)cc3)c2c1", "pIC50": 7.15}
{"COMPOUND": "CCCN(CCC)C(=O)c1ccc2[nH]c(-c3cc(C)cc(C)c3)c(CCNCCCCc3ccc(NS(C)(=O)=O)cc3)c2c1", "pIC50": 6.85}
{"COMPOUND": "CCN(C(=O)c1ccc2[nH]c(-c3cc(C)cc(C)c3)c(CCNCCCCc3ccc(NS(C)(=O)=O)cc3)c2c1)C(C)(C)C", "pIC50": 6.18}

====

- TARGET DESC: Gonadotropin-releasing hormone receptor (Rattus norvegicus, UniProt P30969)
- Sequence (P30969 whole entry): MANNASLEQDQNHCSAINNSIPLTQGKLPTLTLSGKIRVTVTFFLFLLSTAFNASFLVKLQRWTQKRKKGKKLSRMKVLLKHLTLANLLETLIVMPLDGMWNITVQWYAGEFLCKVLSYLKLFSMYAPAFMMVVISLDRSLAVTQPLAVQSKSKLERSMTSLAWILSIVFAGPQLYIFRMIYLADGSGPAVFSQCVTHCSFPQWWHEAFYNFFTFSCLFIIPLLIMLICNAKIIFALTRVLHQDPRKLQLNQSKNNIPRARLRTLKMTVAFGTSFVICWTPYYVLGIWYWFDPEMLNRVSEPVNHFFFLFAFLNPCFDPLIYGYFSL
- PROCEDURE DETAILS: Inhibition of [125I]buserelin binding to rat pituitary Gonadotropin-releasing hormone receptor, in the absence of bovine serum albumin (BSA)
Entries annotated with measured IC50
ENDPOINT: IC50 (nM)

{"COMPOUND": "Cc1cc(C)cc(-c2[nH]c3ccc(CC(=O)N4C(C)CCC4C)cc3c2CCNCCCCc2ccc(NS(C)(=O)=O)cc2)c1 (configuration not stated)", "ENDPOINT": "IC50", "MEAS VALUE": 3}
{"COMPOUND": "Cc1cc(C)cc(-c2[nH]c3ccc(CC(=O)N(C)C)cc3c2CCNCCCCc2ccc(NS(C)(=O)=O)cc2)c1", "ENDPOINT": "IC50", "MEAS VALUE": 2}
{"COMPOUND": "Cc1cc(C)cc(-c2[nH]c3ccc(C(=O)N(C(C)C)C(C)C)cc3c2CCNCCCCc2ccc(NS(C)(=O)=O)cc2)c1", "ENDPOINT": "IC50", "MEAS VALUE": 3}
{"COMPOUND": "Cc1cc(C)cc(-c2[nH]c3ccc(C(C)(C)C(=O)N(C)C)cc3c2CCNCCCCc2ccc(NS(C)(=O)=O)cc2)c1", "ENDPOINT": "IC50", "MEAS VALUE": 3}
{"COMPOUND": "Cc1cc(C)cc(-c2[nH]c3ccc(OC(=O)N(C)C)cc3c2CCNCCCCc2ccc(O)cc2)c1", "ENDPOINT": "IC50", "MEAS VALUE": 3}
{"COMPOUND": "Cc1cc(C)cc(-c2[nH]c3ccc(C(=O)N4CCCCC4)cc3c2CCNCCCCc2ccc(NS(C)(=O)=O)cc2)c1", "ENDPOINT": "IC50", "MEAS VALUE": 2}
{"COMPOUND": "CCN(CC)C(=O)C(C)(C)c1ccc2[nH]c(-c3cc(C)cc(C)c3)c(CCNCCCCc3ccc(NS(C)(=O)=O)cc3)c2c1", "ENDPOINT": "IC50", "MEAS VALUE": 2}
{"COMPOUND": "Cc1cc(C)cc(-c2[nH]c3ccc(C(=O)N4C(C)CCC4C)cc3c2CCNCCCCc2ccc(NS(C)(=O)=O)cc2)c1 (configuration not stated)", "ENDPOINT": "IC50", "MEAS VALUE": 3}
{"COMPOUND": "CCOC(=O)c1ccc2[nH]c(-c3cc(C)cc(C)c3)c(CCNCCCCc3ccc(NS(C)(=O)=O)cc3)c2c1", "ENDPOINT": "IC50", "MEAS VALUE": 14}
{"COMPOUND": "Cc1cc(C)cc(-c2[nH]c3ccc(C(=O)NCc4ccccc4)cc3c2CCNCCCCc2ccc(O)cc2)c1", "ENDPOINT": "IC50", "MEAS VALUE": 24}
{"COMPOUND": "Cc1cc(C)cc(-c2[nH]c3ccc(C(=O)N4C5CCC4CC5)cc3c2CCNCCCCc2ccc(NS(C)(=O)=O)cc2)c1", "ENDPOINT": "IC50", "MEAS VALUE": 3}
{"COMPOUND": "CCOC(=O)C(C)c1ccc2[nH]c(-c3cc(C)cc(C)c3)c(CCNCCCCc3ccc(NS(C)(=O)=O)cc3)c2c1 (configuration not stated)", "ENDPOINT": "IC50", "MEAS VALUE": 4}
{"COMPOUND": "CCN(CC)C(=O)c1ccc2[nH]c(-c3cc(C)cc(C)c3)c(CCNCCCCc3ccc(NS(C)(=O)=O)cc3)c2c1", "ENDPOINT": "IC50", "MEAS VALUE": 2}
{"COMPOUND": "CCCN(CCC)C(=O)c1ccc2[nH]c(-c3cc(C)cc(C)c3)c(CCNCCCCc3ccc(NS(C)(=O)=O)cc3)c2c1", "ENDPOINT": "IC50", "MEAS VALUE": 5}
{"COMPOUND": "CCNC(=O)c1ccc2[nH]c(-c3cc(C)cc(C)c3)c(CCNCCCCc3ccc(NS(C)(=O)=O)cc3)c2c1", "ENDPOINT": "IC50", "MEAS VALUE": 6}
{"COMPOUND": "CCOC(=O)C(C)(C)c1ccc2[nH]c(-c3cc(C)cc(C)c3)c(CCNCCCCc3ccc(NS(C)(=O)=O)cc3)c2c1", "ENDPOINT": "IC50", "MEAS VALUE": 3}
{"COMPOUND": "Cc1cc(C)cc(-c2[nH]c3ccc(C(=O)N4CCCC4)cc3c2CCNCCCCc2ccc(NS(C)(=O)=O)cc2)c1", "ENDPOINT": "IC50", "MEAS VALUE": 4}
